From: ChEMBL document CHEMBL4184336

# MEASUREMENT_TARGET: Alpha-1B adrenergic receptor (Homo sapiens)
# Sequence (P35368 whole entry): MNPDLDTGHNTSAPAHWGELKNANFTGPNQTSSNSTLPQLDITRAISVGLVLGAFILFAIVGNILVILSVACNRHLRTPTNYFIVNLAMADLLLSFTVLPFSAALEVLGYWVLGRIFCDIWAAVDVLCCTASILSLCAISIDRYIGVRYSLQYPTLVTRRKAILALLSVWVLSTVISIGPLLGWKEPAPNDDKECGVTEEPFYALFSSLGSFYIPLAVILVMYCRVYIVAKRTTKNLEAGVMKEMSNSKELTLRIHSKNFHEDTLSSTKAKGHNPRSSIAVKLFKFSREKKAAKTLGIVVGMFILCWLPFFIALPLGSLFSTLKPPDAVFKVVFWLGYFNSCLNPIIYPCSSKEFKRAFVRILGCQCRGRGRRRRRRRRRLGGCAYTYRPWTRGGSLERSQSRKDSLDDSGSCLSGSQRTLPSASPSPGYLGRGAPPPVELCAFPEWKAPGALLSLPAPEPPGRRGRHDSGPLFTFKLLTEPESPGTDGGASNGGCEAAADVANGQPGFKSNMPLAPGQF
PROPERTY_NAME: pKi
Conceptually, pKi converts a concentration in mol/L into minus its log10.

Problem: Which measured pKi value corresponds to NCCCCCCn1cc(CCCCN2CCC(c3ccc(-c4cc(C(=O)O)cc5cc(-c6ccc(C(F)(F)F)cc6)ccc45)cc3)CC2)nn1 ?
Solution: 5.95
